System: NCI-H23
Procedure Details: NCI tumour cell line growth inhibition, 48 h
The source made the active and inactive calls. Rule as the data show it: active = GI50 up to about 1.1 µM and inactive = higher.
Value Kind: GI50

I would be grateful if you could share the reported GI50 for c1cc2nsnc2c2c[nH]cc12 .
> 100 µM (inactive)

I would be grateful if you could share the reported GI50 for O=C(OCc1ccccc1[N+](=O)[O-])N1c2ccccc2[C@@]23O[C@]24CCC[C@H]3C#C/C=C\C#C[C@H]14 .
18.7 µM (inactive)

I would be grateful if you could share the reported GI50 for Cc1ccc2nc3c(Cl)cc(=O)cc-3sc2c1 .
> 10 µM (inactive)

I would be grateful if you could share the reported GI50 for CC1(C)CCCC2CC2CCC(C)(C)C1=O (stereo unspecified) .
> 100 µM (inactive)

I would be grateful if you could share the reported GI50 for O=C(O)CCCc1nc2c(n1Cc1ccccc1)C(=O)c1ccccc1C2=O .
31.6 µM (inactive)

I would be grateful if you could share the reported GI50 for O=C(/C=C/c1ccco1)N1CCN(Cc2ccccc2)CC1 .
> 100 µM (inactive)

I would be grateful if you could share the reported GI50 for O=C1OCC2=C1C(c1ccc(Cl)cc1)c1cc3c(cc1O2)OCO3 (stereo unspecified) .
6.9 µM (inactive)

I would be grateful if you could share the reported GI50 for COc1cc2c(cc1-c1coc3cc(O)ccc3c1=O)OCO2 .
19.5 µM (inactive)

I would be grateful if you could share the reported GI50 for C=C1c2[nH]c3ccccc3c2C2C(CC)C1CCN2C (stereo unspecified) .
> 100 µM (inactive)

I would be grateful if you could share the reported GI50 for Oc1cccc(-c2cc(=S)ss2)c1 .
8.79 µM (inactive)

I would be grateful if you could share the reported GI50 for CNc1ccccc1S(=O)(=O)c1ccccc1[N+](=O)[O-] .
44.6 µM (inactive)

----------
Test system: UACC-257
Procedure Details: NCI tumour cell line growth inhibition, 48 h
The source made the active and inactive calls. No stated cut-off is given here; in the data, active = GI50 up to about 1.1 µM and inactive = higher.
Value Kind: GI50

I would be grateful if you could share the reported GI50 for COc1ccc(-c2coc3c4c(ccc3c2=O)OCO4)cc1OC .
> 100 µM (inactive)

I would be grateful if you could share the reported GI50 for C/C(CC(=O)CCCC(=O)Nc1ccc(Cl)cc1Cl)=N/NC(=O)CC#N .
> 100 µM (inactive)

I would be grateful if you could share the reported GI50 for Cc1ccc(C)c2c1C1CCCCC3(OCCCO3)C21O (stereo not given) .
> 100 µM (inactive)

I would be grateful if you could share the reported GI50 for COc1cc2c(c(OC)c1OC)C(=O)[C@@H]1[C@H]2N1C(N)=O .
> 100 µM (inactive)

I would be grateful if you could share the reported GI50 for O=c1c2cc(Br)cc(Br)c2nc(CCCl)n1-c1ccc(O)c([N+](=O)[O-])c1 .
15.1 µM (inactive)

I would be grateful if you could share the reported GI50 for O=C(N/N=C/c1ccccc1O)N/N=C/c1ccccc1O .
> 100 µM (inactive)

I would be grateful if you could share the reported GI50 for CCOC(=O)/C(=C\NC(=S)Nc1ccc(OCC)cc1)C(=O)c1ccccc1 .
> 100 µM (inactive)

I would be grateful if you could share the reported GI50 for CC(C)=CC(=O)C[C@H]1C(=O)O[C@@H]2C[C@H]3C(C)=CC(=O)[C@@H](O)[C@]3(C)[C@H]3[C@@]4(O)OC[C@]32[C@@H]1[C@@H](C)[C@H]4O .
0.0185 µM (active)

I would be grateful if you could share the reported GI50 for CCOc1ccccc1NC(=O)CSc1nnc(Cc2ccccc2)o1 .
29.7 µM (inactive)

I would be grateful if you could share the reported GI50 for CN(C(=O)Cc1cc(Cl)c(Cl)cc1N=C=S)[C@H]1CCCC[C@@H]1N1CCCC1 .
14.6 µM (inactive)

I would be grateful if you could share the reported GI50 for CCCCN1C(=O)NC(Cc2ccccc2)C1=O (stereo not given) .
> 100 µM (inactive)

I would be grateful if you could share the reported GI50 for O=c1c(-c2ccccc2)c(SCCN2CCCC2)n(-c2ccccc2)c(=S)n1-c1ccccc1 .
> 100 µM (inactive)

I would be grateful if you could share the reported GI50 for C=CCN1CCC(OC(=O)C(O)(/C=C\CC)C2CCCC2)CC1 (stereo not given) .
0.525 µM (active)

I would be grateful if you could share the reported GI50 for CN(CCS(=O)(=O)N1C(=O)C2CCCN2C(=O)[C@@H]1Cc1ccccc1)C(=O)OCc1ccccc1 (stereo not given in full) .
69 µM (inactive)

I would be grateful if you could share the reported GI50 for CC(=O)OCC1OC(n2cnc3nc(Br)[nH]c(=O)c32)C(OC(C)=O)C1OC(C)=O (stereo not given) .
> 100 µM (inactive)

I would be grateful if you could share the reported GI50 for COc1ccc(C(=C2C(=O)OC(=O)C2=C(C)C)c2ccc(OC)cc2)cc1 .
> 100 µM (inactive)

I would be grateful if you could share the reported GI50 for NC(=O)Cc1ncn(-c2ccccc2)n1 .
> 100 µM (inactive)

I would be grateful if you could share the reported GI50 for COc1ccc(NC(=O)C2C(=O)N(c3ccc(OC)cc3)C(=O)/C2=N\NC(N)=O)cc1 (stereo not given) .
46.9 µM (inactive)

I would be grateful if you could share the reported GI50 for CCCCCCCCCCCc1nnc(N)o1 .
> 100 µM (inactive)

I would be grateful if you could share the reported GI50 for NC(=O)C1=C(O)C[C@@H]2CC3Cc4cccc(O)c4C(=O)C3=C(O)[C@]2(O)C1=O (stereo not given in full) .
3.07 µM (inactive)
